Entry source: patent US20190225644A1

system-tested: eIF4E (Homo sapiens, UniProt P06730)
Sequence (P06730 32-217): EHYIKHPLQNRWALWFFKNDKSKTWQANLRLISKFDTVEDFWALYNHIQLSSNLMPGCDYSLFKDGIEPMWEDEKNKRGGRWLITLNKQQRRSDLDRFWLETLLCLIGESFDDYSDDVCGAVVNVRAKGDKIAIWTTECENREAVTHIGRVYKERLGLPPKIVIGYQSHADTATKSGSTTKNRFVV
procedure-text: biochemical

{"molecule": "CO[C@@H]1[C@H](O)[C@@H](COP(=O)(O)OP(=O)([S-])OP(=O)(O)OC[C@H]2O[C@@H](n3cnc4c(=O)[nH]c(N)nc43)[C@H](O)[C@@H]2O)O[C@H]1n1c[n+](C)c2c(=O)[nH]c(N)nc21 (single isomer, unassigned) [Compound 005-30 (D2)]", "unit-spec": "nM", "Kd": 1100}
{"molecule": "CO[C@@H]1[C@H](O)[C@@H](COP(=O)(O)OP(=O)([S-])OP(=O)(O)OC[C@H]2O[C@@H](n3cnc4c(=O)[nH]c(N)nc43)[C@H](O)[C@@H]2O)O[C@H]1n1c[n+](C)c2c(=O)[nH]c(N)nc21 (single isomer, unassigned) [Compound 005-30 (D1)]", "unit-spec": "nM", "Kd": 700}

* * *

system-tested: eIF4E (Homo sapiens, UniProt P06730)
procedure-text: Binding affinities to eIF4E using surface plasmon resonance (SPR)
cond: residence time as listed in Table 13
# τ values compiled below

{"molecule": "CO[C@H]1[C@@H](O)[C@H](n2c[n+](C)c3c(=O)[nH]c(N)nc32)O[C@@H]1COP(=O)(O)OP(=O)(O)OP(=O)(O)OC[C@H]1O[C@@H](n2cnc3c(=O)[nH]c(N)nc32)[C@H](O)[C@@H]1O [ARCA, m7(3′-Om)GpppG, reference compound]", "τ [s]": 0.6}
{"molecule": "CN1CC(COP(=O)(O)OP(=O)([O-])OP(=O)(O)OC[C@H]2O[C@@H](n3cnc4c(=O)[nH]c(N)nc43)[C@H](O)[C@@H]2O)OC(n2c[n+](CCOc3ccc(Cl)cc3)c3c(=O)[nH]c(N)nc32)C1 (some centres unmarked)", "τ [s]": 11.6}
{"molecule": "COCCO[C@@H]1[C@H](O)[C@@H](COP(=O)(O)OP(=O)([S-])OP(=O)(O)OC[C@H]2O[C@@H](n3cnc4c(=O)[nH]c(N)nc43)[C@H](O)[C@@H]2O)O[C@H]1n1c[n+](CCOc2ccc(Cl)cc2)c2c(=O)[nH]c(N)nc21 (some centres unmarked)", "τ [s]": 50}
{"molecule": "Nc1nc2c(ncn2[C@@H]2O[C@H](COP(=O)(O)OP(=O)([O-])OP(=O)(O)OC[C@H]3O[C@@H](n4c[n+](CCOc5ccc(Cl)cc5)c5c(=O)[nH]c(N)nc54)[C@@H](O)[C@@H]3O)[C@@H](O)[C@H]2O)c(=O)[nH]1", "τ [s]": 9.1}
{"molecule": "COCCO[C@@H]1[C@H](O)[C@@H](COP(=O)(O)OP(=O)([O-])OP(=O)(O)OC[C@H]2O[C@@H](n3cnc4c(=O)[nH]c(N)nc43)[C@H](O)[C@@H]2O)O[C@H]1n1c[n+](CCOc2ccc(Cl)cc2)c2c(=O)[nH]c(N)nc21", "τ [s]": 40}
